method: AUC (0 to t) in female rat at 45 mg/kg, po
Type: ADME, organism-based
Parameters: dose 45 mg/kg, route oral
setup conditions: plasma
outcome measure: AUC(0-t) (µg·h/mL)
Quick note: give the figure in µg·h/mL, leave out the unit.

Reported AUC(0-t) for O=C1C=CN(c2c(F)cc(N3C[C@H](CNc4ccon4)OC3=O)c(F)c2F)CC1 [CONTEZOLID] was 230

###

method: Cmax in human at 600 mg, po administered as single dose with meal measured on day 15
Assay type: ADME, organism-based
Parameters: dose 600 mg, route oral
setup conditions: in vivo
outcome measure: Cmax (ng/mL)
Hi! Could you send only the number? It should be in ng/mL, unit omitted.

Looking up `O=C1C=CN(c2c(F)cc(N3C[C@H](CNc4ccon4)OC3=O)c(F)c2F)CC1` , I found its Cmax recorded as 20600

The values you see were collected from ChEMBL document CHEMBL3286113.
